- Target: Human TREM2 (Homo sapiens)
- Sequence (Q9NZC2 19-230): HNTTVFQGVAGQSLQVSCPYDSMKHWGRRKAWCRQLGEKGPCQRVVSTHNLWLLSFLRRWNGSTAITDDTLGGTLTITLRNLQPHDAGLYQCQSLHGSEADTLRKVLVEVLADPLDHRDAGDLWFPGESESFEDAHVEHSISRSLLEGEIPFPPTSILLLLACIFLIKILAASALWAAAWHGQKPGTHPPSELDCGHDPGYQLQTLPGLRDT
- Sequence (O43914 22-113 partner): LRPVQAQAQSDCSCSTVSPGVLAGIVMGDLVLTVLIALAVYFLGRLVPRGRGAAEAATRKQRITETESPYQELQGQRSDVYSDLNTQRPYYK
- Method: Human TREM2 cellular phospho-Syk AlphaLISA assay in HEK293/DAP12+TREM2 stable cell line
- Protocol conditions: phospho-Syk (Tyr525/526) AlphaLISA signal, HEK293/DAP12+TREM2 cells, 30 min incubation
- Excerpt: Human TREM2, in vitro Measurement of Triggering Receptor Expressed on Myeloid Cells 2 activity using cellular phosphorylation of Spleen Tyrosine Kinase (“Syk”) Assay […] TREM2 signaling through DAP12 was monitored in the HEK293/DAP12+TREM2 stable cell line by measuring the phosphorylation levels of the Syk kinase using the commercially available AlphaLISA SureFire Ultra p-SYK (Tyr525/526) Assay Kit (PerkinElmer #ALSU-PSYK), based on the Perkin Elmer AlphaScreen/AlphaLISA technology. […]
Quantity: EC50

Compound	Quantity	Result
Cn1c(C(F)(F)F)nc2c(-c3ccc(C#N)cc3F)nc(N3CC(Oc4cnn(C5CC5)c4)C3)cc2c1=O [Example 41]	EC50	100 to 1000 nM

Consider the compound Cn1c(C(F)(F)F)nc2c(-c3ccc(C#N)cc3F)nc(N3CC(Oc4cnn(CC(F)(F)F)c4)C3)nc2c1=O [Example 19] and give its measured EC50.
10 to 100 nM

EC50 lookup needed for Cn1c(C(F)(F)F)nc2c(-c3ccc(C#N)cc3F)nc(N3CC(Oc4ccnc(OC(F)F)c4)C3)nc2c1=O [Example 24] , thanks.
10 to 100 nM

Entry under review: Cc1cncc(OC2CN(c3nc(-c4ccc(C#N)cc4F)c4nc(C(F)(F)F)n(C)c(=O)c4n3)C2)n1 [Example 6] . Reported EC50?
100 to 1000 nM

EC50 for Cc1n[nH]c(C)c1OC1CN(c2nc(-c3ccc(C#N)cc3F)c3nc(C(F)(F)F)n(C)c(=O)c3n2)C1 [Example 9] ?
100 to 1000 nM

Quick check: EC50 of Cn1c(C(F)(F)F)nc2c(-c3ccc(F)cc3F)nc(N3CC(Oc4cnn(C5CC5)c4)C3)nc2c1=O [Example 32] ?
10 to 100 nM

Report EC50 for CC(C)n1cc(OC2CN(c3nc(-c4ccc(C#N)cc4F)c4nc(C(F)(F)F)n(C)c(=O)c4n3)C2)cn1 [Example 11] please.
10 to 100 nM

All figures here come from patent US12459952B2.
